# Test system: Plasmodium falciparum
# Assay Explanation: Antiplasmodial activity against Plasmodium falciparum W2 infected in human RBC assessed as parasite growth inhibition measured as LDH activity after 72 hrs by plate reader analysis
# Type: functional, organism-based
# Setup Conditions: Plasmodium falciparum, W2, 72 h; read-out: IC50
Reported values of pIC50 for individual entries
Lab note: report pIC50 as minus log10 of the concentration in molar units, number only.

Solved entries:
State the recorded pIC50 for this entry: "Nc1nccc(-c2cn(S(=O)(=O)c3ccc(C(F)(F)F)cc3[N+](=O)[O-])c3ccc(Br)cc23)n1" 5.47

Endpoint output: pIC50 of "Nc1nccc(-c2cn(S(=O)(=O)c3cccc(C(F)(F)F)c3)c3ccc(Br)cc23)n1" . Value? 5.27

Others:
Would you mind telling me what pIC50 value was observed for "CC(C)(C)c1ccc(S(=O)(=O)n2cc(-c3ccnc(N)n3)c3cc(Br)ccc32)cc1" ? 5.06

Requested read-out: pIC50. Entry: "Nc1nccc(-c2cn(S(=O)(=O)c3ccc(C(F)(F)F)cc3)c3ccc(Br)cc23)n1" 5.03

====

# Test system: KB
# Assay Explanation: Cytotoxicity against human KB cells assessed as cell growth inhibition after 48 hrs by neutral red assay
# Assay type: cell-based
Assay Readout: IC50

Here's what some known entries look like.
Report IC50 for "N#Cc1ccc(S(=O)(=O)n2cc(-c3ccnc(N)n3)c3ccccc32)cc1" tested on KB. > 66 µM

Identify the measured IC50 of "Nc1nccc(-c2cn(S(=O)(=O)c3ccc(C(F)(F)F)cc3[N+](=O)[O-])c3ccc(Br)cc23)n1" for KB. > 46 µM

Requested read-out IC50, target or system KB, entry "N#Cc1ccc(S(=O)(=O)n2cc(-c3ccnc(N)n3)c3cc(Br)ccc32)cc1" > 55 µM

Lab request: please report IC50 under test system KB for "CC(=O)Nc1ccc(S(=O)(=O)n2cc(-c3ccnc(N)n3)c3cc(Br)ccc32)cc1" > 51 µM

API: value(readout=IC50, system=KB) for record "Nc1nccc(-c2cn(S(=O)(=O)c3cccc(C(F)(F)F)c3)c3ccc(Br)cc23)n1" > 50 µM

---
Request - read-out IC50 | tested on KB | molecule "Nc1nccc(-c2cn(S(=O)(=O)c3ccc([N+](=O)[O-])cc3)c3ccc(Br)cc23)n1" > 52 µM

Request: IC50, test system KB, entry "CC(C)(C)c1ccc(S(=O)(=O)n2cc(-c3ccnc(N)n3)c3cc(Br)ccc32)cc1" > 51 µM

Form entry - test system: KB; read-out: IC50; molecule: "Nc1nccc(-c2cn(S(=O)(=O)c3ccc(C(F)(F)F)cc3)c3ccc(Br)cc23)n1" > 50 µM

Param readout= IC50; system= KB; entry= "Cc1cc(C)c(S(=O)(=O)n2cc(-c3ccnc(N)n3)c3cc(Br)ccc32)c(C)c1" ; returns value. > 53 µM

====

# Tested on: LLC-PK1
# Assay Explanation: Cytotoxicity against pig LLC-PK1 cells assessed as cell growth inhibition after 48 hrs by neutral red assay
# Format: cell-based
# Setup Conditions: Sus scrofa, LLC-PK1, 48 h
pIC50: −log10 of the molar value.
pIC50 overview

Recorded results for 3 molecules are shown here.
Data request, read-out pIC50, for "CC(C)(C)c1ccc(S(=O)(=O)n2cc(-c3ccnc(N)n3)c3cc(Br)ccc32)cc1" < 4.29

// query pIC50 value for entry "CC(=O)Nc1ccc(S(=O)(=O)n2cc(-c3ccnc(N)n3)c3cc(Br)ccc32)cc1" < 4.29

What does the data say about its pIC50? Entry: "N#Cc1ccc(S(=O)(=O)n2cc(-c3ccnc(N)n3)c3ccccc32)cc1" < 4.18

More entries:
Given the entry "Nc1nccc(-c2cn(S(=O)(=O)c3ccc(C(F)(F)F)cc3)c3ccc(Br)cc23)n1" , report its measured pIC50. < 4.30

====

# Assay Explanation: Selectivity index, ratio of IC50 for pig LLC-PK1 cells to IC50 for Plasmodium falciparum W2
Assay Readout: Ratio IC50

I am curious: what Ratio IC50 value has been reported for "Nc1nccc(-c2cn(S(=O)(=O)c3ccc(C(F)(F)F)cc3)c3ccc(Br)cc23)n1" ? >5.3

For the molecule shown here, "N#Cc1ccc(S(=O)(=O)n2cc(-c3ccnc(N)n3)c3cc(Br)ccc32)cc1" , give the reported Ratio IC50. >10.6

# query: Ratio IC50 of entry "Nc1nccc(-c2cn(S(=O)(=O)c3ccc(C(F)(F)F)cc3[N+](=O)[O-])c3ccc(Br)cc23)n1" >13.5

Which Ratio IC50 is reported for this molecule? "Nc1nccc(-c2c[nH]c3ccccc23)n1" >24.1

Consider the molecule shown here: "Nc1nccc(-c2cn(S(=O)(=O)c3ccc([N+](=O)[O-])cc3)c3ccc(Br)cc23)n1" What is its recorded Ratio IC50? >8.2

Using the record for "Nc1nccc(-c2cn(S(=O)(=O)c3cccc(C(F)(F)F)c3)c3ccc(Br)cc23)n1" , report its Ratio IC50. >9.4

Name the recorded Ratio IC50 for "Nc1nccc(-c2c[nH]c3ccc(Br)cc23)n1" . >7.4

Consider the molecule "N#Cc1ccc(S(=O)(=O)n2cc(-c3ccnc(N)n3)c3ccccc32)cc1" and give its measured Ratio IC50. >7.4

Continuing:
Using the record for "Cc1cc(C)c(S(=O)(=O)n2cc(-c3ccnc(N)n3)c3cc(Br)ccc32)c(C)c1" , report its Ratio IC50. >6.3

// Ratio IC50 lookup, key: "CC(=O)Nc1ccc(S(=O)(=O)n2cc(-c3ccnc(N)n3)c3cc(Br)ccc32)cc1" >5.6

I have this molecule here, "CC(C)(C)c1ccc(S(=O)(=O)n2cc(-c3ccnc(N)n3)c3cc(Br)ccc32)cc1" , and I need its recorded Ratio IC50. >5.9

====

# Assay Explanation: Retention time of the compound by HPLC analysis
# Assay type: physicochemical
Where Retention_time equals or exceeds 8 min, the correct label is label 1; where it does not, the label is label 0.

Please tell me: is the compound "Cc1ccsc1C(=O)n1cc(-c2ccnc(N)n2)c2ccccc21" at or over 8 min in terms of Retention_time? label 1

Check the entry "CC(C)(C)c1ccc(S(=O)(=O)n2cc(-c3ccnc(N)n3)c3cc(Br)ccc32)cc1" : does Retention_time equal or exceed 8 min? label 1

Tell me whether Retention_time is at least 8 min here: "Nc1nccc(-c2cn(S(=O)(=O)c3ccc(C(F)(F)F)cc3)c3ccccc23)n1" label 1

Is it the case that "Nc1nccc(-c2cn(S(=O)(=O)c3ccc(Br)cc3)c3ccccc23)n1" has Retention_time reaching or exceeding 8 min? label 1

Threshold query (Retention_time >= 8 min) on "Cc1cc(C)c(S(=O)(=O)n2cc(-c3ccnc(N)n3)c3ccccc32)c(C)c1" label 1

hey, is Retention_time for this one >= 8 min? "COc1ccc(Br)cc1S(=O)(=O)n1cc(-c2ccnc(N)n2)c2ccccc21" label 1

***
Check this compound for Retention_time at or above 8 min: "Nc1nccc(-c2cn(S(=O)(=O)c3cccc(C(F)(F)F)c3)c3ccccc23)n1" label 1

Please tell me: is the compound "Nc1nccc(-c2cn(S(=O)(=O)c3ccc(Cl)cc3Cl)c3ccccc23)n1" at or over 8 min in terms of Retention_time? label 1

Answer whether Retention_time of "Cc1c(C)c(C)c(S(=O)(=O)n2cc(-c3ccnc(N)n3)c3cc(Br)ccc32)c(C)c1C" is greater than or equal to 8 min. label 1

====

Reported IC50 by item:
# Test system: SK-MEL
# Assay Explanation: Cytotoxicity against human SK-MEL cells assessed as cell growth inhibition after 48 hrs by neutral red assay
# Assay type: cell-based

Completed entries (count: 5):
Suppose we examine the compound "N#Cc1ccc(S(=O)(=O)n2cc(-c3ccnc(N)n3)c3ccccc32)cc1" ; what IC50 value has been reported? > 66 µM

Find the recorded IC50 belonging to "Cc1cc(C)c(S(=O)(=O)n2cc(-c3ccnc(N)n3)c3cc(Br)ccc32)c(C)c1" and report it. > 53 µM

Using the record for "Nc1nccc(-c2cn(S(=O)(=O)c3ccc(C(F)(F)F)cc3[N+](=O)[O-])c3ccc(Br)cc23)n1" , report its IC50. > 46 µM

Returns the measured IC50 for the input compound. Input: "Nc1nccc(-c2cn(S(=O)(=O)c3ccc([N+](=O)[O-])cc3)c3ccc(Br)cc23)n1" > 52 µM

Which IC50 value belongs to "CC(C)(C)c1ccc(S(=O)(=O)n2cc(-c3ccnc(N)n3)c3cc(Br)ccc32)cc1" ? > 51 µM

More entries:
Given the compound "CC(=O)Nc1ccc(S(=O)(=O)n2cc(-c3ccnc(N)n3)c3cc(Br)ccc32)cc1" , what is its reported IC50? > 51 µM

Please give the measured IC50 for this compound: "Nc1nccc(-c2cn(S(=O)(=O)c3ccc(C(F)(F)F)cc3)c3ccc(Br)cc23)n1" > 50 µM

Any idea what its IC50 is? The compound is "N#Cc1ccc(S(=O)(=O)n2cc(-c3ccnc(N)n3)c3cc(Br)ccc32)cc1" > 55 µM

Given the entry "Nc1nccc(-c2cn(S(=O)(=O)c3cccc(C(F)(F)F)c3)c3ccc(Br)cc23)n1" , report its measured IC50. > 50 µM
